molecular target: BChE (Homo sapiens, UniProt P06276); experiment: BChE inhibition, modified Ellman's method; type: biochemical; details: mean ± S.E; read-out: BChE (IC50)
Sequence (P06276 29-602): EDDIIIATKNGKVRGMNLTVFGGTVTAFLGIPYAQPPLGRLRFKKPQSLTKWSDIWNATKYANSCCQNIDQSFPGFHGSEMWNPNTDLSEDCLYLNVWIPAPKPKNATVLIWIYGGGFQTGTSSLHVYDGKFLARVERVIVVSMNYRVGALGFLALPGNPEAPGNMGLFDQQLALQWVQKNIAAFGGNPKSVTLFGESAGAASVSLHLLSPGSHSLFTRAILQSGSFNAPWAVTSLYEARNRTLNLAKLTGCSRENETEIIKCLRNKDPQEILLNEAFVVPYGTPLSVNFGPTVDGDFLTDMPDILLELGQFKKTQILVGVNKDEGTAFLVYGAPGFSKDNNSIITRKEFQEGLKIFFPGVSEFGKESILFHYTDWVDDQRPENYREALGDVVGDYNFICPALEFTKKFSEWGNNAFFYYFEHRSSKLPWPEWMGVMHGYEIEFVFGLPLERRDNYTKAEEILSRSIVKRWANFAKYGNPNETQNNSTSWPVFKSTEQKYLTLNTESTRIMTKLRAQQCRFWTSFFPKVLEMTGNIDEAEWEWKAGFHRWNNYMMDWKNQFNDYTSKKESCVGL
Lab note: compare IC50 with 2 µM, writing MET if less and NOT MET if equal or more.

N#CC1=C(N)OC2=C(C(=O)CCC2)C1c1ccc(OCc2ccc(Br)cc2)cc1 (stereo not drawn) | MET
COc1cc(C2C(C#N)=C(N)OC3=C2C(=O)CCC3)ccc1OCc1cccc(F)c1 (stereo not drawn) | NOT MET
N#CC1=C(N)OC2=C(C(=O)CCC2)C1c1cccc(OCc2ccc(Br)cc2)c1 (stereo not drawn) | NOT MET
N#CC1=C(N)OC2=C(C(=O)CCC2)C1c1ccc(OCc2ccc(Cl)cc2)cc1 (stereo not drawn) | MET
N#CC1=C(N)OC2=C(C(=O)CCC2)C1c1ccc([N+](=O)[O-])cc1 (stereo not drawn) | NOT MET
N#CC1=C(N)OC2=C(C(=O)CCC2)C1c1cccc(OCc2ccc(Cl)cc2)c1 (stereo not drawn) | NOT MET
N#CC1=C(N)OC2=C(C(=O)CCC2)C1c1ccc(OCCN2CCOCC2)cc1 (stereo not drawn) | NOT MET
COc1cc(C2C(C#N)=C(N)OC3=C2C(=O)CCC3)ccc1OCc1ccc(F)cc1 (stereo not drawn) | MET

With those in mind, consider the next compound.
# input Please indicate whether the reported IC50 of COc1cc(C2C(C#N)=C(N)OC3=C2C(=O)CCC3)ccc1OCc1cccc(Cl)c1 (stereo not drawn) is strictly below 2 µM.
# output MET

Provenance of the data: paper PMC11007943
